molecular target: baculovirus-expressed ALK (Homo sapiens, UniProt Q9UM73); construct: host or cells: baculovirus expression system; assay: ALK Kinase Assay (ELISA-type, time-resolved fluorescence); assay type: biochemical; conditions: 1 μM ATP (Km level); read-out: ALK Activity (ALK Kinase Inhibition, IC50)
Sequence (Q9UM73 19-1620): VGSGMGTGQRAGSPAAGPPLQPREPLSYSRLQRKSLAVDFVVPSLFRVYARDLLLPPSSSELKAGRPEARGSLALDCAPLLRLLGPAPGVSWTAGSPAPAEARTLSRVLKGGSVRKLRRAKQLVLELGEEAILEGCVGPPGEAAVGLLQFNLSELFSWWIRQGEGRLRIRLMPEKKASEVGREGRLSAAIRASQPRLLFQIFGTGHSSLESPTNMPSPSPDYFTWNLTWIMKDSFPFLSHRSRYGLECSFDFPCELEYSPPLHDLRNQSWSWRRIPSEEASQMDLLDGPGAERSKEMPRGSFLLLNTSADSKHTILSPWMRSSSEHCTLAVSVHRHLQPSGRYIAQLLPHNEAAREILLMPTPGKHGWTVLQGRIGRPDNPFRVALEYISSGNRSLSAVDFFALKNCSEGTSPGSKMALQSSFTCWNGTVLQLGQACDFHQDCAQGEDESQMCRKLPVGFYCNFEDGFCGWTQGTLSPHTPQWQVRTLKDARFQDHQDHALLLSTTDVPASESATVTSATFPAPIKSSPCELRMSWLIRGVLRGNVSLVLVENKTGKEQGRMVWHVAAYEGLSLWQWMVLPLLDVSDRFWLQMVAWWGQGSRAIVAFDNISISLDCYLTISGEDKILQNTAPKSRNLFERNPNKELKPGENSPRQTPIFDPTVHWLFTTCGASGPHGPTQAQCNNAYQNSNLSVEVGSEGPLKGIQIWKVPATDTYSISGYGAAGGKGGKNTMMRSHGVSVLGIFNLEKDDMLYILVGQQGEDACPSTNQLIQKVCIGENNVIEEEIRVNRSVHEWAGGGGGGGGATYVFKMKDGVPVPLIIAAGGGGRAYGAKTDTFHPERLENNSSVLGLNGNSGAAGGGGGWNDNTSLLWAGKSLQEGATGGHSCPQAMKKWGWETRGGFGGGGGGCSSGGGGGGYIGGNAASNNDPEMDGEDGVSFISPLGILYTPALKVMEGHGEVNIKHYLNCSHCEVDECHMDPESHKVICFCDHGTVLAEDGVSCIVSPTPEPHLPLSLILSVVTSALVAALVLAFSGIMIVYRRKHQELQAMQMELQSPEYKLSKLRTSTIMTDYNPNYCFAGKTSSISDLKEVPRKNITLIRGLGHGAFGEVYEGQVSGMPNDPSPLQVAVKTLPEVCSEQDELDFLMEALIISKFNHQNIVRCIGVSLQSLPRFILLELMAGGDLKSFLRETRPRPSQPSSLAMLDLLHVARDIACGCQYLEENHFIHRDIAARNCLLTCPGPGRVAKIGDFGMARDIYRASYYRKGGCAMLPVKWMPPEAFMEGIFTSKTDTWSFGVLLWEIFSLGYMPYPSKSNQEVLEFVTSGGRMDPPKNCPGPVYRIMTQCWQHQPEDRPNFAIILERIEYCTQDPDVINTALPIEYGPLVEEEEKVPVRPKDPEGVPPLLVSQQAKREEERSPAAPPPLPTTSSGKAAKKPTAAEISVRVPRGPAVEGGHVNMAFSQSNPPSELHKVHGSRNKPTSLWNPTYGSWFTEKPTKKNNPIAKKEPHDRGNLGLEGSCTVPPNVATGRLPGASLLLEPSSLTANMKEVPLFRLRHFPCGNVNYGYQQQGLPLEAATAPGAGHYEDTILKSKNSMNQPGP
pIC50: −log10 of the molar value.
The entries below are paired with their reported pIC50.

# MOLECULE, pIC50
rows = [
    ("CCN1C(=O)CCCc2c1ccc(Nc1ncc(Cl)c(Nc3ccc(OC)cc3C(=O)NC)n1)c2OC [Example 607]", "> 7.00"),
    ("COc1cc2c(cc1Nc1ncc(Cl)c(N[C@@H]3CCCC[C@H]3NS(C)(=O)=O)n1)N(C)C(=O)CN(CC1CC1)C2 [Example 746]", "6.00 to 7.00"),
    ("COCCN1CCc2ccc(Nc3ncc(Cl)c(Nc4cccc5c4ncn5C)n3)cc2CC1 [Example 1006]", "6.00 to 7.00"),
    ("CC(C)S(=O)(=O)c1ccccc1Nc1nc(Nc2cccc3c2OCCCC3(C)C)ncc1Cl [Example 878]", "6.00 to 7.00"),
    ("COc1cc2c(cc1Nc1ncc(Cl)c(N[C@H]3[C@@H](C(N)=O)[C@@H]4C=C[C@H]3C4)n1)CCN(C(=O)C1COCCO1)CC2 (stereo partly shown) [Example 635]", "> 7.00"),
    ("COCCN1CCc2ccc(Nc3ncc(Cl)c(Nc4cc(C(N)=O)n[nH]4)n3)cc2CC1 [Example 954]", "6.00 to 7.00"),
]

Req: I have this molecule here, CCN1C(=O)CN(CCOC)Cc2cc(OC)c(Nc3ncc(Cl)c(Nc4ccc(N5CCOCC5)cc4OC)n3)cc21 [Example 726] , and I need its recorded pIC50.
Resp: 6.00 to 7.00
